System: PPARg:RXRa IVT, anti-PPARg (NR concentration 270 nM, RXRa partner concentration 90 nM)
assayProcedure: PBM binding z-score (relative to random genomic background probes); higher = stronger binding; sequences stand for … in GC…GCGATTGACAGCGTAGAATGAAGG
experimentalEndpoint: PBM binding z-score

Here's what some known entries look like.
>  <monomerSequence>
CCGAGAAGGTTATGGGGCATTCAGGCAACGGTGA

>  <PBM binding z-score>
1.38

$$$$
>  <monomerSequence>
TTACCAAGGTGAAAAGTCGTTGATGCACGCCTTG

>  <PBM binding z-score>
2.64

$$$$

Would you mind telling me what PBM binding z-score value was observed for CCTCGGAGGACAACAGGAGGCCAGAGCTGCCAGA ?
-0.707

Would you mind telling me what PBM binding z-score value was observed for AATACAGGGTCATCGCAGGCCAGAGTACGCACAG ?
4.33

Would you mind telling me what PBM binding z-score value was observed for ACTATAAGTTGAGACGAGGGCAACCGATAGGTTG ?
0.388

Would you mind telling me what PBM binding z-score value was observed for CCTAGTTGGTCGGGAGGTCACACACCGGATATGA ?
1.89

Would you mind telling me what PBM binding z-score value was observed for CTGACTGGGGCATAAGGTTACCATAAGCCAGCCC ?
4.79

Would you mind telling me what PBM binding z-score value was observed for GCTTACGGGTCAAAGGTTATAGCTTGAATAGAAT ?
5.72

Would you mind telling me what PBM binding z-score value was observed for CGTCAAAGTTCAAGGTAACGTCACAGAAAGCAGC ?
2.31

Would you mind telling me what PBM binding z-score value was observed for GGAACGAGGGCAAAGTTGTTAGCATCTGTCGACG ?
3.57

Would you mind telling me what PBM binding z-score value was observed for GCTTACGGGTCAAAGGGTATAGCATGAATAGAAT ?
5.08

Would you mind telling me what PBM binding z-score value was observed for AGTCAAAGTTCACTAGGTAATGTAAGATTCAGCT ?
4.44

====

System: THRa homodimer (NR concentration 90 nM)
assayProcedure: PBM binding z-score (relative to random genomic background probes); higher = stronger binding; sequences stand for … in GC…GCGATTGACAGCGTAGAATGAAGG
experimentalEndpoint: PBM binding z-score
The reply should be a number, written without any unit.

Here's what some known entries look like.
>  <monomerSequence>
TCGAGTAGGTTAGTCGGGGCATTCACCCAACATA

>  <system>
THRa homodimer (NR concentration 90 nM)

>  <experimentalEndpoint>
PBM binding z-score

>  <recordedMeasurement>
0.381

$$$$
>  <monomerSequence>
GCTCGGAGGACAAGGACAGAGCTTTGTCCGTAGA

>  <system>
THRa homodimer (NR concentration 90 nM)

>  <experimentalEndpoint>
PBM binding z-score

>  <recordedMeasurement>
0.61

$$$$
>  <monomerSequence>
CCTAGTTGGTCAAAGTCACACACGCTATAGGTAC

>  <system>
THRa homodimer (NR concentration 90 nM)

>  <experimentalEndpoint>
PBM binding z-score

>  <recordedMeasurement>
0.467

$$$$

Would you mind telling me what PBM binding z-score value was observed for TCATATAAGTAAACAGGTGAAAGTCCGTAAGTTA ?
0.549

Would you mind telling me what PBM binding z-score value was observed for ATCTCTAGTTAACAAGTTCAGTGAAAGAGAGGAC ?
0.867

Would you mind telling me what PBM binding z-score value was observed for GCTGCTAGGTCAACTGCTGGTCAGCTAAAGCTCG ?
0.954

Would you mind telling me what PBM binding z-score value was observed for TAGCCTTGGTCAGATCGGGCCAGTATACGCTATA ?
-0.783

Would you mind telling me what PBM binding z-score value was observed for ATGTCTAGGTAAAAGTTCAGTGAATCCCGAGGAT ?
0.0268

Would you mind telling me what PBM binding z-score value was observed for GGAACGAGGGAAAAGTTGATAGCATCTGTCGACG ?
-1.15

Would you mind telling me what PBM binding z-score value was observed for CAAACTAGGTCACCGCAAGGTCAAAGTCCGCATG ?
4.38

Would you mind telling me what PBM binding z-score value was observed for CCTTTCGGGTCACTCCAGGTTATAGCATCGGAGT ?
3.18

Would you mind telling me what PBM binding z-score value was observed for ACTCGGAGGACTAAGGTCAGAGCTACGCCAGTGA ?
2.6

Would you mind telling me what PBM binding z-score value was observed for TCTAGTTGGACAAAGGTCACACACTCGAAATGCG ?
1.8

Would you mind telling me what PBM binding z-score value was observed for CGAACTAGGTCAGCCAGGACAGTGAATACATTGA ?
1.45

Would you mind telling me what PBM binding z-score value was observed for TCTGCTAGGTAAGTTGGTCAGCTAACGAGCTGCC ?
-0.918

Would you mind telling me what PBM binding z-score value was observed for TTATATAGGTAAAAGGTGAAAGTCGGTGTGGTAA ?
0.486

Would you mind telling me what PBM binding z-score value was observed for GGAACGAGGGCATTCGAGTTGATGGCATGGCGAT ?
-0.631

Would you mind telling me what PBM binding z-score value was observed for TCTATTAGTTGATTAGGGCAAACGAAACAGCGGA ?
0.119

Would you mind telling me what PBM binding z-score value was observed for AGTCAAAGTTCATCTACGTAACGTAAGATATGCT ?
-0.445

Would you mind telling me what PBM binding z-score value was observed for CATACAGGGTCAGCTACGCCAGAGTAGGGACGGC ?
0.834

Would you mind telling me what PBM binding z-score value was observed for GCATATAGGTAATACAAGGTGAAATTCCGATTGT ?
0.848

Would you mind telling me what PBM binding z-score value was observed for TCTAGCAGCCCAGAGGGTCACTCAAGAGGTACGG ?
-0.455

Would you mind telling me what PBM binding z-score value was observed for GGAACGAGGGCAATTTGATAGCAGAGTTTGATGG ?
-0.191

Would you mind telling me what PBM binding z-score value was observed for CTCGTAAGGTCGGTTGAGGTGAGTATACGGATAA ?
2.39

Would you mind telling me what PBM binding z-score value was observed for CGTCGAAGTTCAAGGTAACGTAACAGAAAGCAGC ?
0.792

Would you mind telling me what PBM binding z-score value was observed for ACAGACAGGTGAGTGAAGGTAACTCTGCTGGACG ?
-0.492

FYI, the data here is from the supplement of paper PMC6555819.
